Catalogue of ELISA absorbance (A405 nm) values
TARGET_OF_ASSAY: T1, human PD-L1 protein (coated antigen) (human, UniProt Q9NZQ7 19-238, limits assumed)
T1 construct: Construct not described; also called PD-L1 antigen; antigenic protein PD-L1
EXPERIMENT: ELISA, purified nanobody 10 ug/mL on coated PD-L1, anti-HA detection
# number only, unit A405 nm dropped from output

Example results:
SEQ ID NO 4 (VHH, pMECS-expressed; also called anti-PD-L1 nanobody No. 4; VHH numbered 4) VHH: QVQLQESGGGSVQTGGSLRLSCAASPSIYSANYMAWFSQAPGKGREGVAAVYIGDGRPYYADSVKGRFTISLDSAKNTVYLQMNSLKPEDTAMYYCAAAPGPLGHNYWYTSANYDYWGQGTQVTVSS | 3.51
SEQ ID NO 3 (VHH, pMECS-expressed; also called anti-PD-L1 nanobody No. 3; VHH numbered 3) VHH: QVQLQESGGGSVQTGGSLRLSCAASTSLYSYNYMAWFSQAPGKGREGVAAVYVGDGRPYYADSVKGRFTISLDSAKNAVYLQMNSLKPEDTAMYYCAAAPGPLSHNYWYTSANYDYWGQGTQVTVSS | 2.36
SEQ ID NO 11 (VHH, pMECS-expressed; also called anti-PD-L1 nanobody No. 11; VHH numbered 11) VHH: QVQLQESGGGSVQAGETLRLSCTASGDTFDDSGVGWFRQVSGNECDLVSSINRDGTTYYAPSVAGRFTISQNNAKNTVYLQMNSLKPDDTAVYYCATVPAVGIVVRITCRGPFGYWGQGTQVTVSS | 2.9

# evaluate next
**Query** // ELISA absorbance (A405 nm) lookup, key: SEQ ID NO 1 (VHH, pMECS-expressed; also called anti-PD-L1 nanobody No. 1; VHH numbered 1) VHH: QVQLQESGGGSVQTGGSLRLSCTASTSIYSNNYMAWFSQSPGKGREGVAAVYMDDGRPYYADSVKGRFTISLDSAKNTMYLQMNSLKPEDTAMYYCAAAPGPLSRNYWYTSANYDYWGQGTQVTVSS
**Result** 3.8
